Just for reference, PubChem BioAssay (NCI) is where these values come from.

test: NCI Yeast Anticancer Drug Screen. Data for the bub3 strain (AID 167); conditions: S. cerevisiae bub3 mutant strain, at 50.0 µM, active compounds read high
Compounds without any hit were thinned out: in the full panel of roughly 79,000, 15% have a hit.
Here the recorded growth inhibition is given for each entry.
Respond numerically; units are % and should not be typed.

Consider the reported growth inhibition for these compounds:
O=C(CCc1c[nH]c2ccccc12)c1ccccc1O : 73.8
Cc1cccc(-c2nnc(-c3cccc(C)c3)o2)c1 : 55
CCCCCCCCCCCCSCCCN : 99.5
C/C(O)=C(/C=N\C(=S)Nc1ccc(Cl)c(Cl)c1)C(=O)Nc1ccccc1C : 51.6
CCC(=O)c1cc2ccccc2c2ccccc12 : 75.8

**Q:** For the compound `COc1ccc(Cc2cncc3c(O)c(OC)ccc23)cc1O` , give its reported growth inhibition.
**A:** 86.4

**Q:** Return reported growth inhibition. Input compound: `Oc1c(Br)ccc2cccnc12`
**A:** 88.5

###

assay: NCI Yeast Anticancer Drug Screen. Data for the mec2-1 strain (AID 157); settings: S. cerevisiae mec2-1 strain, at 50.0 µM (retest, dose inferred, filed as 5.0), active compounds read high
About 79,000 compounds went through this panel and 15% of them were active in at least one assay; those are over-represented in the sample as a whole.
Parameter: growth inhibition. Scope: all listed entries.
Answer format: numeric, % implied, no suffix.

// worked examples, growth inhibition included
O=C1O/C(=C(/Cl)c2c3ccccc3cc3ccccc23)c2ccccc21 : 92
Cc1ccc(NC(=O)/C(CC(=O)c2sc(Nc3ccc(Cl)c(Cl)c3)nc2C)=N\Nc2ccc([N+](=O)[O-])cc2[N+](=O)[O-])c(C)c1 : 96
CN(Cc1cnc2nc(N[Si](C)(C)C)nc(N[Si](C)(C)C)c2n1)c1ccc(C(=O)NC(CCC(=O)O[Si](C)(C)C)C(=O)O[Si](C)(C)C)cc1 (stereo not given) : 97

**Q:** Answer with reported growth inhibition of `OC(C/C=N/Nc1ccccc1)(C(F)(F)Cl)C(F)(F)Cl`
**A:** 99

**Q:** Indicate its recorded growth inhibition; the compound in question is OCc1ccc2c(c1)CC1(C2)Cc2cc3c(cc2C1O)CCC3 (stereo not given)
**A:** 36

**Q:** Item `NC(=O)C#CC#CC#CCO` : provide growth inhibition
**A:** 62

**Q:** Fill in reported growth inhibition for this entry: CN(C)C1CCC2C(=C1OC(=O)c1ccccc1)C=Cc1ccccc12 (stereo not given)
**A:** 16

**Q:** For `COc1ccc(C(=O)CCc2c[nH]c3ccccc23)c(O)c1` , write its growth inhibition.
**A:** 22

###

assay: NCI Yeast Anticancer Drug Screen. Data for the mlh1 rad18 strain (AID 175); conditions: S. cerevisiae mlh1 rad18 strain growth inhibition; at 50.0 µM; active compounds read high
Compounds without any hit were thinned out: in the full panel of roughly 79,000, 15% have a hit.
Please note: Condition met applies when growth inhibition is 60% or greater, and Condition not met applies otherwise.

Reference set (6 entries):
Clc1ccc(SCCN2CCN(CCSc3ccc(Cl)cc3)CC2)cc1 : Condition met
Clc1ccc([O][In]([O]c2ccc(Cl)cn2)[O]c2ccc(Cl)cn2)nc1 : Condition not met
COc1cc2c(c(O)c1OC)-c1c(cc(OC)c(OC)c1OC)CC(C)C(C)C2 (stereo not given) : Condition not met
CCOC(=O)C(=NNc1ccccc1)C(=O)OCC : Condition met
O=C(CCl)[O][Bi]([O]C(=O)CCl)([c]1ccccc1)([c]1ccccc1)[c]1ccccc1 : Condition not met
CCc1c(-c2ccccc2)c(CN2CCCCC2)c2ccccn12 : Condition not met

**Q:** Hello, I need to know if `CN(C)CCCNc1cc(O)c2c(c1O)C(=O)c1ccccc1C2=O` has measured growth inhibition not below 60%. Thanks!
**A:** Condition met

**Q:** growth inhibition >= 60% for `COC(=O)C(=Cc1c[nH]c2ccccc12)C(=O)OC` ?
**A:** Condition not met
